- Test System: T1, GV27 peptide (ER-α36 c-terminal 27 aa) (human)
- T1 construct: also called 27 aa peptide (F domain); 27-amino acid peptide derived from the F domain of ER-α36
- T1 peptide: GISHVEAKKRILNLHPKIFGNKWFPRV
- Assay Protocol: Biacore; table head says human ER-α36, analyte taken as the GV27 peptide of Example 5
Answer each item with its documented kon.
Give bare numbers, in M⁻¹ s⁻¹.

Record excerpt, results attached:
Binder: SNGHZD (C2L + C5H) (antibody, human IgG1, kappa, V domains shown, Humanized antibody, human IgG1/kappa; also called humanized SNGmB1 variant C2L + C5H) VH: QVQLVQSGAEVKKPGASVKVSCKASGYTFTSHNMHWVRQAPGQGLEWIGAIHPVNGDTAYNQKFKGKATLTVDKSTSTAYLELSSLRSEDTAVYYCAREGYGSVDYWGQGTLVTVSS VL: ETTVTQSPAFMSATPGDKVNISCITSTDIDDDMNWYQQKPGEAAILIISEGNTLRPGIPPRFSSSGYGTDFTLTINNIESEDAAYYFCLQSDNLPLTFGQGTKLEIKR
kon, M⁻¹ s⁻¹: 3.46e+06

Binder: SNGHZD (C1L + C6H) (antibody, human IgG1, kappa, V domains shown, Humanized antibody, human IgG1/kappa; also called humanized SNGmB1 variant C1L + C6H) VH: QVQLVQSGAEVKKPGASVKVSCKASGYTFTSHNMHWVRQAPGQGLEWIGAIHPVNGDTAYNQKFKGKATLTVDKSTSTAYMELSSLRSEDTAVYYCAREGYGSVDYWGQGTLVTVSS VL: ETTVTQSPAFMSATPGDKVNISCITSTDIDDDMNWYQQKPGEAPILIISEGNTLRPGIPPRFSSSGYGTDFTLTINNIESEDAAYYFCLQSDNLPLTFGQGTKLEIKR
kon, M⁻¹ s⁻¹: 2.89e+06

What does the data say about its kon? Entry: SNGHZD (C2L + C6H) (antibody, human IgG1, kappa, V domains shown, Humanized antibody, human IgG1/kappa; also called humanized SNGmB1 variant C2L + C6H) VH: QVQLVQSGAEVKKPGASVKVSCKASGYTFTSHNMHWVRQAPGQGLEWIGAIHPVNGDTAYNQKFKGKATLTVDKSTSTAYMELSSLRSEDTAVYYCAREGYGSVDYWGQGTLVTVSS VL: ETTVTQSPAFMSATPGDKVNISCITSTDIDDDMNWYQQKPGEAAILIISEGNTLRPGIPPRFSSSGYGTDFTLTINNIESEDAAYYFCLQSDNLPLTFGQGTKLEIKR
1.28e+06
